Test system: BT-549
Test: NCI tumour cell line growth inhibition, 48 h
Activity calls are given as the source filed them. Rule as the data show it: active = GI50 up to about 1.1 µM and inactive = higher. Residues, ends and D or L forms follow the SMILES beside them.
Please answer using one outcome listed in active, inactive

{"compound": "COc1nc(=O)n(C2CC(F)C(CO)O2)cc1C (configuration not stated)", "classification": "inactive"}
{"compound": "O=C1C2C3C4C1C1C2[C@H](OCc2ccccc2)C3C1[C@H]4OCc1ccccc1 (some centres not stated)", "classification": "inactive"}
{"compound": "CC1(C)OC[C@@H](O)[C@H](C#N)CO1", "classification": "inactive"}
{"compound": "CCOC(=O)/C=C/[C@@H](CC)O[Si](C(C)C)(C(C)C)C(C)C", "classification": "inactive"}
{"compound": "CCn1c2ccccc2n2c(=O)c3c(c(C#N)c12)CCCC3", "classification": "inactive"}
{"compound": "Nc1cc2nc(-c3ccccc3)cn2cn1", "classification": "inactive"}
{"compound": "O=c1[nH][nH]c(=O)n1Cc1ccccc1Cn1c(=O)[nH][nH]c1=O", "classification": "inactive"}
{"compound": "O=c1c(-c2nc3ccccc3c3ccccc3c2=O)nc2ccccc2c2ccccc12", "classification": "inactive"}

Asked: Hey, what did the test say about O=S(=O)(O)CCCc1cccc2ccccc12 ?
Given back: inactive

Asked: Another compound to check: O=C1CCc2cc3c(cc21)CC1(Cc2cc4c(cc2C1)CCCC4)C3
Given back: inactive

Asked: Proceed to CCC(C)C(NC(=O)C(CC(C)C)NC(=O)CNC(=O)C(NC(=O)C1CCCN1C(=O)C(CC(C)C)NC(=O)C(N)Cc1ccccc1)C(C)CC)C(=O)NC(CC(C)C)C(N)=O (configuration not stated) (H-FLPIGLIL-NH2; configuration not given here)
Given back: inactive

Asked: What about CC(C)(C)C1CCC2c3c([nH]c4ccccc34)C3C(=O)N(c4ccccc4Cl)C(=O)C3C2C1 (configuration not stated) ?
Given back: inactive

Asked: Now this one: Cc1cc2c(cc1C)[n+]([O-])c(C(F)(F)F)c(C(=O)c1ccccc1)[n+]2[O-]
Given back: inactive

Asked: Check CC1=C(N2CC2)C(=O)C(CO)=C(N2CC2)C1=O too.
Given back: active

Asked: Please answer likewise for CC1=CC[C@H](C[C@H](C#CCCCC2OCCO2)O[Si](C(C)C)(C(C)C)C(C)C)C(=O)CC1
Given back: inactive

Asked: Another: CCC/C(Cl)=N\OC(=O)Nc1ccc(OC(F)(F)F)cc1
Given back: inactive

Asked: Repeat with COc1ccc(OC2OC(CO)C(OCc3ccccc3)C(OCc3ccccc3)C2OCc2ccccc2)cc1 (configuration not stated)
Given back: inactive

====

Tested on: MOLT-4
Assay: NCI tumour cell line growth inhibition, 48 h
The source made the active and inactive calls. No stated cut-off is given here; in the data, active = GI50 up to about 1.1 µM and inactive = higher.
Choose the fitting class; nothing outside t = active, f = inactive is accepted.

Worked cases, answers included:
{"molecule": "CCCCCCCCCCCCCCCCCCOCC(O)COP(=O)(O)OCC1OC(n2cc(F)c(=O)[nH]c2=O)CC1O (configuration not stated)", "classification": "f"}
{"molecule": "N#CCN1C(=O)c2cccc3cc([N+](=O)[O-])cc(c23)C1=O", "classification": "f"}
{"molecule": "O=C1C(=O)N(c2ccc(Cl)cc2)C(=O)C(=O)C1c1nc2ccccc2o1", "classification": "f"}
{"molecule": "N#CCc1cccc(CC#N)c1Br", "classification": "f"}
{"molecule": "CC(C)(C)C1CCC2c3c([nH]c4ccccc34)C3C(=O)N(c4ccccc4Cl)C(=O)C3C2C1 (configuration not stated)", "classification": "f"}

Asked: Dear all, I need the recorded test outcome for CNc1nc2c(C)ccc3nc(N(C)C)nc-3c2n1C , thank you.
Given back: f

Asked: N#Cc1nn(C(N)=O)c(N)c1C#N ?
Given back: f

Asked: Likewise for CC1=C(N2CC2)C(=O)C(CO)=C(N2CC2)C1=O ?
Given back: t

Asked: Now consider Cc1sc2c(c1C)C(=O)c1cccn1-2 and answer again.
Given back: f
